- System: Bacillus subtilis IFO 3513
- EXPERIMENTAL DETAILS: paper disk antibacterial test, Bacillus subtilis IFO 3513
- Assay type: cell-based
- PROTOCOL CONDITIONS: 20 μg/disc, ( ) represents partial inhibition
OBSERVABLE: the diameter of cell growth inhibition zone (mm)
Give bare numbers, in mm.

// known answers, use as guide
MOLECULE: CCCCCC=CCC=CCCCC(CC(=O)OC1CN(C)C(C(OC2OC(CN)C(O)C2OS(=O)(=O)O)C2OC(n3ccc(=O)[nH]c3=O)C(O)C2O)C(=O)N(C)C1C(=O)O)OC(=O)CC(C)CC(=O)O (centres unmarked) [Liposidomycins A, reference compound]
TARGET OF ASSAY: Bacillus subtilis IFO 3513
READOUT VALUE: 0
--
MOLECULE: CCCCCCCCC=CCC(CC(=O)OC1CN(C)C(C(OC2OC(CN)C(O)C2OS(=O)(=O)O)C2OC(n3ccc(=O)[nH]c3=O)C(O)C2O)C(=O)N(C)C1C(=O)O)OC(=O)CC(C)CC(=O)O (centres unmarked)
TARGET OF ASSAY: Bacillus subtilis IFO 3513
READOUT VALUE: 0
--
MOLECULE: CCCCCC=CCC=CCCCC(CC(=O)OC1CN(C)C(C(OC2OC(CN)C(O)C2O)C2OC(n3ccc(=O)[nH]c3=O)C(O)C2O)C(=O)N(C)C1C(=O)O)OC(=O)CC(C)CC(=O)O (centres unmarked)
TARGET OF ASSAY: Bacillus subtilis IFO 3513
READOUT VALUE: 21.0
--
MOLECULE: CCCCCCCCCCCCCC(CC(=O)OC1CN(C)C(C(OC2OC(CN)C(O)C2OS(=O)(=O)O)C2OC(n3ccc(=O)[nH]c3=O)C(O)C2O)C(=O)N(C)C1C(=O)O)OC(=O)CC(C)CC(=O)O (centres unmarked)
TARGET OF ASSAY: Bacillus subtilis IFO 3513
READOUT VALUE: 9.7

// next item, the diameter of cell growth inhibition zone requested
Problem: Using the record for CCCCCCCCCCCC(CC(=O)OC1CN(C)C(C(OC2OC(CN)C(O)C2OS(=O)(=O)O)C2OC(n3ccc(=O)[nH]c3=O)C(O)C2O)C(=O)N(C)C1C(=O)O)OC(=O)CC(C)CC(=O)O (centres unmarked) [Liposidomycins C, reference compound] , report its the diameter of cell growth inhibition zone.
Result: 0

###

- Tested on: Mycobacterium phlei IFO 3158
- EXPERIMENTAL DETAILS: paper disk antibacterial test, Mycobacterium phlei
- Type: cell-based
- PROTOCOL CONDITIONS: Mycobacterium phlei IFO 3158; 20 μg/disc
Hi there, I'd appreciate the recorded the diameter of cell growth inhibition zone for every entry that follows.
Answers are plain numbers, in mm.

// known answers, use as guide
COMPOUND: CCCCCC=CCC=CCCCCCC(CC(=O)OC1CN(C)C(C(OC2OC(CN)C(O)C2OS(=O)(=O)O)C2OC(n3ccc(=O)[nH]c3=O)C(O)C2O)C(=O)N(C)C1C(=O)O)OC(=O)CC(C)CC(=O)O (stereo not drawn)
RESULT UNIT: mm
READOUT VALUE: 28.6

COMPOUND: CCCCCCCCCCCCCC(CC(=O)OC1CN(C)C(C(OC2OC(CN)C(O)C2O)C2OC(n3ccc(=O)[nH]c3=O)C(O)C2O)C(=O)N(C)C1C(=O)O)OC(=O)CC(C)CC(=O)O (stereo not drawn)
RESULT UNIT: mm
READOUT VALUE: 25.7

COMPOUND: CCCCCCCCCCCCCC(CC(=O)OC1CN(C)C(C(OC2OC(CN)C(O)C2OS(=O)(=O)O)C2OC(n3ccc(=O)[nH]c3=O)C(O)C2O)C(=O)N(C)C1C(=O)O)OC(=O)CC(C)CC(=O)O (stereo not drawn)
RESULT UNIT: mm
READOUT VALUE: 27.2

COMPOUND: CCCCCCCCCCCC(CC(=O)OC1CN(C)C(C(OC2OC(CN)C(O)C2OS(=O)(=O)O)C2OC(n3ccc(=O)[nH]c3=O)C(O)C2O)C(=O)N(C)C1C(=O)O)OC(=O)CC(C)CC(=O)O (stereo not drawn) [Liposidomycins C, reference compound]
RESULT UNIT: mm
READOUT VALUE: 22.1

COMPOUND: CCCCCC=CCC=CCCCCCC(CC(=O)OC1CN(C)C(C(OC2OC(CN)C(O)C2O)C2OC(n3ccc(=O)[nH]c3=O)C(O)C2O)C(=O)N(C)C1C(=O)O)OC(=O)CC(C)CC(=O)O (stereo not drawn)
RESULT UNIT: mm
READOUT VALUE: 23.3

COMPOUND: CCCCCCCCCCCC(CC(=O)OC1CN(C)C(C(OC2OC(CN)C(O)C2O)C2OC(n3ccc(=O)[nH]c3=O)C(O)C2O)C(=O)N(C)C1C(=O)O)OC(=O)CC(C)CC(=O)O (stereo not drawn)
RESULT UNIT: mm
READOUT VALUE: 30.3

COMPOUND: CCCCCC=CCC=CCCCC(CC(=O)OC1CN(C)C(C(OC2OC(CN)C(O)C2OS(=O)(=O)O)C2OC(n3ccc(=O)[nH]c3=O)C(O)C2O)C(=O)N(C)C1C(=O)O)OC(=O)CC(C)CC(=O)O (stereo not drawn) [Liposidomycins A, reference compound]
RESULT UNIT: mm
READOUT VALUE: 18.9

COMPOUND: CCCCCC=CCC=CCCCC(CC(=O)OC1CN(C)C(C(OC2OC(CN)C(O)C2O)C2OC(n3ccc(=O)[nH]c3=O)C(O)C2O)C(=O)N(C)C1C(=O)O)OC(=O)CC(C)CC(=O)O (stereo not drawn)
RESULT UNIT: mm
READOUT VALUE: 24.8

// next item, the diameter of cell growth inhibition zone requested
Problem: Using the record for CCCCCCCCC=CCC(CC(=O)OC1CN(C)C(C(OC2OC(CN)C(O)C2O)C2OC(n3ccc(=O)[nH]c3=O)C(O)C2O)C(=O)N(C)C1C(=O)O)OC(=O)CC(C)CC(=O)O (stereo not drawn) , report its the diameter of cell growth inhibition zone.
Result: 26.3

###

- Test system: Bacillus subtilis IFO 3513
- EXPERIMENTAL DETAILS: paper disk antibacterial test, Bacillus subtilis IFO 3513
- Format: cell-based
- PROTOCOL CONDITIONS: 20 μg/disc, ( ) represents partial inhibition
OBSERVABLE: the diameter of cell growth inhibition zone (mm)
Numbers only, in mm.

// known answers, use as guide
MOLECULE: CCCCCCCCCCCCCC(CC(=O)OC1CN(C)C(C(OC2OC(CN)C(O)C2O)C2OC(n3ccc(=O)[nH]c3=O)C(O)C2O)C(=O)N(C)C1C(=O)O)OC(=O)CC(C)CC(=O)O (stereo not shown)
READOUT VALUE: 14.8
//
MOLECULE: CCCCCCCCCCCC(CC(=O)OC1CN(C)C(C(OC2OC(CN)C(O)C2O)C2OC(n3ccc(=O)[nH]c3=O)C(O)C2O)C(=O)N(C)C1C(=O)O)OC(=O)CC(C)CC(=O)O (stereo not shown)
READOUT VALUE: 17.8
//
MOLECULE: CCCCCCCCC=CCC(CC(=O)OC1CN(C)C(C(OC2OC(CN)C(O)C2O)C2OC(n3ccc(=O)[nH]c3=O)C(O)C2O)C(=O)N(C)C1C(=O)O)OC(=O)CC(C)CC(=O)O (stereo not shown)
READOUT VALUE: 22.2

// next item, the diameter of cell growth inhibition zone requested
Problem: Quick check: the diameter of cell growth inhibition zone on Bacillus subtilis IFO 3513, item CCCCCC=CCC=CCCCCCC(CC(=O)OC1CN(C)C(C(OC2OC(CN)C(O)C2O)C2OC(n3ccc(=O)[nH]c3=O)C(O)C2O)C(=O)N(C)C1C(=O)O)OC(=O)CC(C)CC(=O)O (stereo not shown) ?
Result: 13.0

Numbers sourced from patent US6844183B2.
